target: fatty acyl CoA: cholesterol acyl transferase (ACAT) (Rattus norvegicus, UniProt O70536)
Construct: The supernatant, containing the microsomal fraction, served as the source of the cholesterol-esterifying enzyme; from tissue; host or cells: rat adrenals (1,000 x g supernatant containing the microsomal fraction)
assay_details: Inhibition of enzymatic esterification of cholesterol (ACAT) in rat adrenal supernatant containing the microsomal fraction
Format: biochemical
condition_description: final concentration of test compound 5.2 μg./ml., percent inhibition of the ACAT enzyme compared to control values
endpoint_label: inhibition at 5.2 µg/mL
Form field: result (number plus unit)

Would you please look over these solved cases?
compound_string | inhibition at 5.2 µg/mL
CCOC(=O)c1ccc(NC(=O)C=C(c2ccccc2)c2ccc(C)cc2)cc1 | 88%
COc1ccc(C(CC(=O)Nc2ccc(C(F)(F)F)cc2)c2ccc(OC)cc2)cc1 | 92%
Cc1ccc(C(=CC(=O)Nc2ccc(C(=O)O)cc2)c2ccccc2)cc1 | 80%
CCOC(=O)c1ccc(NC(=O)C(c2ccc(Cl)cc2)c2ccc(Cl)cc2)cc1 | 86%
CCOC(=O)c1ccc(NC(=O)CCCCCc2ccc(Cl)cc2)cc1 | 42%

Given the compound `COc1ccc(C(=CC(=O)Nc2ccc(C(=O)O)cc2)c2ccc(OC)cc2)cc1` and test system fatty acyl CoA: cholesterol acyl transferase (ACAT) (Rattus norvegicus, UniProt O70536), the measured inhibition at 5.2 µg/mL is 78%

====

target: fatty acyl CoA: cholesterol acyl transferase (ACAT) (Rattus norvegicus)
Construct: The supernatant, containing the microsomal fraction, served as the source of the cholesterol-esterifying enzyme; from tissue; host or cells: rat adrenals (1,000 x g supernatant containing the microsomal fraction)
Sequence (O70536 1-545): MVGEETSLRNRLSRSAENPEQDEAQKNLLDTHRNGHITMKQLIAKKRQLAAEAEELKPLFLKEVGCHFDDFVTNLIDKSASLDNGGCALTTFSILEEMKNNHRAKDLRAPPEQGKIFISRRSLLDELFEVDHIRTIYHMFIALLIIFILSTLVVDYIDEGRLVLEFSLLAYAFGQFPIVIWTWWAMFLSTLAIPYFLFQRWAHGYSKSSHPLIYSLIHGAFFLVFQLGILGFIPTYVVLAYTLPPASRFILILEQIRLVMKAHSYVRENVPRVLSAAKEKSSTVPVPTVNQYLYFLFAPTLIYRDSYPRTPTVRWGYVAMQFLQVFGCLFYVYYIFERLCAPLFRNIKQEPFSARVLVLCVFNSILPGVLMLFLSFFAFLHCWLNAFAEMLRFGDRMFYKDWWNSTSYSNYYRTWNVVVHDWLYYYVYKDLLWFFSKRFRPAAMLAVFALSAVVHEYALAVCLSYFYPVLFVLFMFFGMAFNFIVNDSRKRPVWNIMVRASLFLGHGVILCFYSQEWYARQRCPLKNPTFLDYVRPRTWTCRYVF
assay_details: Inhibition of enzymatic esterification of cholesterol (ACAT) in rat adrenal supernatant containing the microsomal fraction
Type: biochemical
condition_description: final concentration of test compound 5.2 μg./ml., percent inhibition of the ACAT enzyme compared to control values
Classify on inhibition at 5.2 µg/mL using bin A: < 50%; bin B: ≥ 50% and < 90%; bin C: ≥ 90%

compound_string | class_name
O=C(O)c1ccc(NC(=O)C(c2ccc(Cl)cc2)c2ccc(Cl)cc2)cc1 | bin B
CCOC(=O)c1ccc(NC(=O)C=C(C)c2ccc(Cl)cc2)cc1 | bin B
O=C(C=C(c1ccc(Cl)cc1)c1ccc(Cl)cc1)Nc1ccccc1C(=O)O | bin A

Class (by measured inhibition at 5.2 µg/mL) for `COc1ccc(C=CC(=O)Nc2ccc(C(=O)O)cc2)cc1`
bin A

Class (by measured inhibition at 5.2 µg/mL) for `CCOC(=O)c1ccc(NC(=O)C=C(c2ccc(OC)cc2)c2ccc(OC)cc2)cc1`
bin C

Class (by measured inhibition at 5.2 µg/mL) for `CC(=O)c1ccc(NC(=O)CC(c2ccc(Cl)cc2)c2ccc(Cl)cc2)cc1`
bin C

Class (by measured inhibition at 5.2 µg/mL) for `Cc1ccc(NC(=O)CC(c2ccc(Cl)cc2)c2ccc(Cl)cc2)cc1`
bin A
